src = ChEMBL document CHEMBL3822432

system: Mycobacterium tuberculosis; assay: Antibacterial activity against rifampin/isoniazid-resistant Mycobacterium tuberculosis CSU 45 SRI 1377 by two fold serial dilution method; assay type: functional
Non-standard residues stand in square brackets, D forms with d. Residues, ends and D or L forms follow the SMILES beside them. ξ: configuration not given here. Ac6c = NC1(C(=O)O)CCCCC1; ξDab = NCCC(N)C(=O)O
Field: MIC. Provide a value for each of the compounds that follow.

compound	experimental_readout	measured_value
CC(=O)NCC(=O)N[C@H](Cc1ccccc1)C(=O)NC1(C(=O)NCC(=O)N2C(C(=O)N[C@@H](CCCCN)C(=O)NC3(C(=O)NCC(=O)N4C(C(=O)N[C@@H](Cc5ccccc5)C(=O)NC5(C(=O)NCC(=O)N6C(C(=O)NCC(=O)N[C@@H](CCCCN)C(=O)N7C(C(=O)N[C@H](CCCCN)C(=O)N[C@H](CCCCN)C(=O)N[C@H](CCCCN)C(=O)N[C@H](CCCCN)C(N)=O)CC8CCCCC87)CC7CCCCC76)CCCCC5)CC5CCCCC54)CCCCC3)CC3CCCCC32)CCCCC1 (stereo in doubt)	MIC	20.9 µM
CC(=O)N[C@@H](CCCCN)C(=O)N[C@@H](CCCCN)C(=O)N[C@@H](CCCCN)C(=O)N[C@@H](CCCCN)C(=O)NCC(=O)N[C@@H](Cc1ccccc1)C(=O)NC1(C(=O)NCC(=O)NC2(C(=O)N[C@@H](CCCCN)C(=O)NC3(C(=O)NCC(=O)NC4(C(=O)N[C@@H](Cc5ccccc5)C(=O)NC5(C(=O)NCC(=O)NC6(C(=O)NCC(=O)N[C@@H](CCCCN)C(=O)NC7(C(N)=O)CCCCC7)CCCCC6)CCCCC5)CCCCC4)CCCCC3)CCCCC2)CCCCC1 (Ac-KKKKGF[Ac6c]G[Ac6c]K[Ac6c]G[Ac6c]F[Ac6c]G[Ac6c]GK[Ac6c]-NH2)	MIC	10.9 µM

Could you now look at the following compound, please?
Would you kindly share the measured MIC for CC(=O)NCC(=O)N[C@@H](Cc1ccccc1)C(=O)NC1(C(=O)NCC(=O)NC2(C(=O)NC(CCN)C(=O)NC3(C(=O)NCC(=O)NC4(C(=O)N[C@@H](Cc5ccccc5)C(=O)NC5(C(=O)NCC(=O)NC6(C(=O)NCC(=O)NC(CCN)C(=O)NC7(C(=O)NC(CCN)C(=O)NC(CCN)C(=O)NC(CCN)C(=O)NC(CCN)C(N)=O)CCCCC7)CCCCC6)CCCCC5)CCCCC4)CCCCC3)CCCCC2)CCCCC1 (stereo partly drawn) (Ac-GF[Ac6c]G[Ac6c][ξDab][Ac6c]G[Ac6c]F[Ac6c]G[Ac6c]G[ξDab][Ac6c][ξDab][ξDab][ξDab][ξDab]-NH2) ?
25.6 µM
